The reported measurements were obtained from patent US20250296938A1.

Items are presented alongside their recorded inhibition at 20 µM.
Biological target: Rac-1 (Homo sapiens, UniProt P63000)
Experiment: Ras GTP binding domain inhibition assay (Cy3-GTP/Cy5-GTP competition)
Details: without SOS, read-out: Rac-1: % inh.

// query Quick one: inhibition at 20 µM of Cn1ccc(-c2sc3nc(-c4nccn4C)nc(NCC4CCOC4)c3c2-c2ccccc2)n1 (centres unmarked) [drawing 996] ?
// result 1 to 25%

// query Same question for CCOC1CCN(c2nc(-c3nccn3C)nc3sc(-c4ccn(C)n4)c(-c4ccccc4)c23)C1 (centres unmarked) please.
// result 1 to 25%

// query What about COc1ccc(Cn2cnc(-c3nc(O)c4scc(-c5ccccn5)c4n3)c2)cc1 [drawing 974] ?
// result 1 to 25%

// query // repeat for COCCn1ccnc1-c1nc(O)c2scc(-c3ccc(OCC(C)C)nc3)c2n1 [drawing 1033] and report
// result 76 to 100%

// query Same lookup for CO[C@H]1CC[C@@H](Nc2nc(-c3nccn3C)nc(C(=O)N3CCc4c(O)cccc4C3)c2C)C1 [drawing 1036] , please.
// result 51 to 75%

---

Tested on: MIA PaCa-2 pancreatic cancer cell line
Test: Cell proliferation assay (DAPI)
Type: cell-based
Conditions: Homo sapiens; 10 μM, MIA PaCa-2 (Table 5A); read-out: % Inhibition of cell proliferation, MIA PaCa-2 % inh
Readout Type: inhibition at 10 µM

Past entries and their recorded results:
Compound: CO[C@H]1C[C@H](Nc2nc(-c3nccn3C)nc3sc(-c4ccn(C)n4)c(-c4ccccc4)c23)C1 [drawing 641]
Reported Value: 76 to 100%

Compound: CO[C@H]1C[C@@H](Nc2nc(-c3nccn3C)nc3sccc23)C1 [drawing 638]
Reported Value: 26 to 50%

Compound: COC1CCC(Nc2nc(-c3nccn3C)nc3sc(-c4cccc(O)c4F)c(-c4ccccc4)c23)C1 (stereo not shown) [drawing 620]
Reported Value: 76 to 100%

Compound: CO[C@H]1C[C@@H](Nc2nc(-c3ccccn3)nc3sccc23)C1 [drawing 637]
Reported Value: 1 to 25%

Compound: COc1cccc(-c2sc3nc(-c4nc(C)cn4C)nc(N[C@@H]4CC[C@H](OC)C4)c3c2C)c1F [drawing 631]
Reported Value: 76 to 100%

Compound: COCCNC(=O)c1sc2nc(-c3nccn3C)nc(N[C@@H]3CC[C@H](OC)C3)c2c1-c1ccccc1 [drawing 660]
Reported Value: 76 to 100%

Compound: CO[C@H]1CC[C@@H](Nc2nc(-c3nccn3C)nc3sc(C(=O)N4CCCC4)c(-c4ccccc4)c23)C1 [drawing 661]
Reported Value: 76 to 100%

Compound: CO[C@H]1CC[C@@H](Nc2nc(-c3nccn3C)nc3sc(-c4ccn(C(C)C)n4)c(C)c23)C1 [drawing 654]
Reported Value: 76 to 100%

Compound: CO[C@H]1CC[C@@H](Nc2nc(-c3nccn3C)nc(C(=O)N3CCc4c(O)cccc4C3)c2C)C1 [drawing 636]
Reported Value: 1 to 25%

Compound: COc1cccc(Cn2ccnc2-c2nc(O)c3scc(-c4ccc(OCC(C)C)nc4)c3n2)c1 [drawing 635]
Reported Value: 76 to 100%

// query Look at this compound and give its reported inhibition at 10 µM. CO[C@H]1C[C@@H](Nc2nc(-c3nccn3C)nc3sc(-c4ccn(C)n4)c(C)c23)C1 [drawing 649]
// result 76 to 100%

// query Same again, this time with Cc1c(-c2ccn(C)n2)sc2nc(-c3nccn3C)nc(NCCCC(=O)N(C)C)c12 [drawing 652]
// result 0%

---

Below: a set of entries, each annotated with reported inhibition at 20 µM.
Biological target: KRas G12D mutant (Homo sapiens, UniProt P01116, G12D)
Construct: fused on or other part: His tag, used for capture on nickel-coated plates
Experiment: Ras GTP binding domain inhibition assay (Cy3-GTP/Cy5-GTP competition)
Details: at 20 μM, without SOS; read-out: KRas G12D mutant: % inh.

Known inhibition at 20 µM results, listed for orientation:
Molecule: Cn1ccc(-c2sc3nc(-c4nccn4C)nc(NCC4CCOC4)c3c2-c2ccccc2)n1 (stereo not shown) [drawing 996]
inhibition at 20 µM: 26 to 50%

Molecule: CN(Cc1ccccc1)C(=O)c1nc(-c2ccccn2)nc(O)c1O [drawing 934]
inhibition at 20 µM: 26 to 50%

Molecule: COCC(C)Nc1nc(-c2nccn2C)nc2sc(-c3ccn(C)n3)c(-c3ccc(OC)cc3)c12 (stereo not shown) [drawing 1004]
inhibition at 20 µM: 0%

Molecule: COCCNc1nc(-c2nccn2C)nc2sc(-c3cccc(OC)c3Cl)c(-c3ccccc3)c12 [drawing 1007]
inhibition at 20 µM: 1 to 25%

// query Sample CO[C@H]1CC[C@@H](Nc2nc(-c3nccn3C)nc3sc(-c4ccn(C(C)C)n4)c(-c4ccccc4)c23)C1 [drawing 1047] — what was its inhibition at 20 µM?
// result 51 to 75%

// query Likewise for COc1c(O)nc(-c2ccccn2)nc1Nc1ccccc1 [drawing 1015] ?
// result 26 to 50%

// query # repeat for Cc1c(-c2ccn(C)n2)sc2nc(-c3nccn3C)nc(NCCCC(=O)N(C)C)c12 [drawing 1052]
// result 51 to 75%

// query Here is the next molecule: COc1c(O)nc(-c2ccccn2)nc1Oc1cccnc1 [drawing 937]
// result 51 to 75%

// query Request: COCCCNc1nc(-c2nccn2C)nc2sc(-c3ccn(C)n3)c(-c3ccc(OC)cc3)c12 [drawing 1005]
// result 0%

// query Item: Cn1ccnc1-c1nc(O)c2scc(-c3ccccn3)c2n1 [drawing 988]
// result 76 to 100%

// query Further, for Cn1ccc(-c2sc3nc(-c4nccn4C)nc(NC4CCOCC4)c3c2-c2ccccc2)n1 [drawing 997] ?
// result 1 to 25%

// query Also need COCCNc1nc(-c2nccn2C)nc2sc(-c3cc(OC)ccc3Cl)c(-c3ccccc3)c12 [drawing 1006] , thanks.
// result 26 to 50%

// query Follow-up item: COCCNc1nc(-c2nccn2C)nc2sc(-c3cc(OC)ccc3Cl)c(-c3ccc(OC)cc3)c12 [drawing 1012]
// result 1 to 25%

---

Listed compounds paired with reported inhibition at 20 µM
Target: Rho-A (Homo sapiens, UniProt P61586)
Experiment: Ras GTP binding domain inhibition assay (Cy3-GTP/Cy5-GTP competition)
Details: with SOS, read-out: Rho-A + SOS: % inh.

// query Missing value: inhibition at 20 µM, Rho-A (Homo sapiens, UniProt P61586), entry COc1nscc1-c1sc2nc(-c3nccn3C)nc(N3CCC(OC)C3)c2c1-c1ccccc1 (stereo not drawn) [drawing 975] . Fill in?
// result 1 to 25%

// query Lookup CO[C@H]1CC[C@@H](Nc2nc(-c3nccn3C)nc3sc(-c4ccn(C)n4)c(C)c23)C1 [drawing 1050]
// result 76 to 100%

// query What do you have for COCCNc1nc(-c2cn(C)cn2)nc2sc(-c3cc(OC)ccc3Cl)c(-c3ccc(OC)cc3)c12 [drawing 930] ?
// result 26 to 50%

// query And then Cn1ccc(-c2sc3nc(-c4nccn4C)nc(N4CCC5(CCOC5)C4)c3c2-c2ccccc2)n1 (stereo not drawn) [drawing 992] , what is it?
// result 76 to 100%

// query Now the same for CO[C@H]1C[C@@H](Nc2nc(-c3ncc[nH]3)nc3sc(-c4ccn(C)n4)c(-c4ccccc4)c23)C1 [drawing 1045]
// result 26 to 50%

// query // repeat for COCCNc1nc(-c2nccn2C)nc2sc(-c3cccc(OC)c3)c(-c3ccc(OC)cc3)c12 [drawing 1010] and report
// result 0%

---

Target: Rac-1 (Homo sapiens)
Test: Ras GTP binding domain inhibition assay (Cy3-GTP/Cy5-GTP competition)
Conditions: with SOS, read-out: Rac-1 + SOS: % inh.
Readout Type: inhibition at 20 µM

// below: answered molecules
Molecule: COC1CCN(C(=O)c2sc3nc(-c4nccn4C)nc(N[C@H]4C[C@@H](OC)C4)c3c2-c2ccccc2)C1 (stereo partly shown) [drawing 1058]
inhibition at 20 µM: 51 to 75%
//
Molecule: CO[C@H]1CC[C@@H](Nc2nc(-c3nccn3C)nc3sc(C(=O)N4CCCC4)c(-c4ccccc4)c23)C1 [drawing 1061]
inhibition at 20 µM: 76 to 100%
//
Molecule: COC1CCN(c2nc(-c3nccn3C)nc3sc(-c4cnn(C)c4)c(-c4ccccc4)c23)C1 (stereo not shown) [drawing 970]
inhibition at 20 µM: 0%
//
Molecule: COCCNc1nc(-c2nccn2C)nc2sc(-c3ccccc3Cl)c(-c3ccc(OC)cc3)c12 [drawing 1011]
inhibition at 20 µM: 26 to 50%
//
Molecule: O=C(NC1CCCC1)c1nc(-c2ccccn2)nc(O)c1O [drawing 947]
inhibition at 20 µM: 51 to 75%
//
Molecule: CCn1cc(Nc2nc(-c3ccccn3)nc(O)c2OC)cn1 [drawing 1016]
inhibition at 20 µM: 76 to 100%

// query Quick check: inhibition at 20 µM on Rac-1 (Homo sapiens), item COC1CCC(Nc2nc(-c3nccn3C)nc3sc(-c4cccc5[nH]ncc45)c(C)c23)C1 (stereo not shown) [drawing 1030] ?
// result 51 to 75%

// query Likewise for Cc1c(-c2ccn(C)n2)sc2nc(-c3nccn3C)nc(NCCCS(C)(=O)=O)c12 [drawing 1051] ?
// result 51 to 75%

// query # repeat for COc1cccc(-c2sc3nc(-c4nccn4C)nc(N[C@H]4C[C@@H](OC)C4)c3c2-c2ccccc2)c1F [drawing 1026]
// result 51 to 75%

// query Now give it for COc1cc(-c2sc3nc(-c4nccn4C)nc(N4CCC(OC)C4)c3c2-c2ccccc2)ccn1 (stereo not shown) [drawing 980] too.
// result 1 to 25%

// query Moving on to the next molecule: Cn1ccnc1-c1nc(O)c(O)c(C(=O)NC2CCCC2)n1 [drawing 962]
// result 51 to 75%

// query What about COc1ccc(-c2c(-c3ccn(C)n3)sc3nc(-c4nccn4C)nc(N4CCC(OC)C4)c23)cc1 (stereo not shown) [drawing 1003] ?
// result 0%

// query Now try O=C(c1nc(-c2ccccn2)nc(O)c1O)N1CCOCC1 [drawing 935] .
// result 26 to 50%

// query # repeat for Cc1cn(C)c(-c2nc(O)c3scc(-c4ccccn4)c3n2)n1 [drawing 942]
// result 51 to 75%

// query Note, next up: COCC(C)Nc1nc(-c2nccn2C)nc2sc(-c3ccn(C)n3)c(-c3ccccc3)c12 (stereo not shown) [drawing 999]
// result 1 to 25%

// query Let us now turn to COCCNc1nc(-c2nccn2C)nc2sc(-c3cccc(OC)c3Cl)c(-c3ccc(OC)cc3)c12 [drawing 1009]
// result 51 to 75%

// query How about this molecule: O=C(c1nc(-c2ccccn2)nc(O)c1O)N1CCc2ccccc2C1 [drawing 967]
// result 51 to 75%

// query Cool, now CC(C)CNC(=O)c1nc(-c2ccccn2)nc(O)c1O [drawing 946]
// result 76 to 100%

// query Another: COC(=O)c1nc(-c2nccn2C)nc(O)c1O [drawing 959]
// result 51 to 75%

// query Another: COc1c(O)nc(-c2ccccn2)nc1Oc1ccccc1 [drawing 948]
// result 76 to 100%

// query Again, but for COCC1CN(c2nc(-c3nccn3C)nc3sc(-c4cccc(OC)c4F)c(-c4ccc(OC)cc4)c23)C1 [drawing 940]
// result 0%

// query And the next one, CO[C@H]1C[C@@H](Nc2nc(-c3nccn3C)nc3sc(C(=O)NC(C)C)c(-c4ccccc4)c23)C1 [drawing 1055] ?
// result 76 to 100%
